assay: protease stability score; higher = more stable; yeast display proteolysis, trypsin and chymotrypsin;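 also: relative to predicted unfolded state with 0 unfolded-like and 1 meaning tenfold more protease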
MEASUREMENT_TYPE: protease stability score
// print number alone

Below, 4 sequences whose answers are already recorded.
>>> observed("DEEERKMEEALRLMKTTHDTGDWDLERELFDPNVKMDINGRELHGRRHWEKLRKDFGLDNIRFTLRHIDSQGDFILIRGDVEINGVRLDVIIIAEKINGRWIVREVRLR")
0.718
>>> observed("DETRRHTEELFHWLLRAFMTGDFKLSYDNADPDVRFIINGRRDHGRDLYVRDLRHMRVHDSKVNHIHFEFQGDWAVVRVDGHIFGEYDGQHFNLRVEIRIIINKIDGRWSLESVEIRIH")
0.812
>>> observed("DELHKFAEEFMKIFVHNFFTGDWRTMHELLDPHVRLDFNGVEHIGRENVLKFWEEIRRRYDHFHIEVKRVETQGEKAHSDVHLEFRINGQEEHRKQHWHLDVINGRIHSFFVEVE")
2.03
>>> observed("DEDERHFEIWFKLFIHLYLTGNEETLRHLADPNVRTVYNGRDFHGWDEMVRIHHEMFDFYKGLRVEKVNVESVEIFDGRVLILLRIRVLVNGRTTDDHIHVEAKKIDGQWIIESVDFR")
1.65

What value of measured protease stability score is listed for DEDHKQSKHAFELFMHLLRTGDEEVLRRMADPNARIVVNGKDDIGREVFLRVLLEFGVDHMQIRDWELDENHIILVSELRIGEKTHTLDVHFKKINGRWIVEVNNLE ?
1.25

Fill in the blank: the reported protease stability score of DEDEREAERSIREELEYTRTGDEDFIKRLADPHVKLNIDGQRHHGRETVVKIMVEARIKDLHIERLTVIDGRVHMRGRMEGNFNGRDTEVEVHIKLKKVNGQWHVRDFEIR is ____.
1.14

* * *

Collected protease stability score values appear next to each entry.
assay: protease stability score; higher = more stable; yeast display proteolysis, trypsin and chymotrypsin;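 also: relative to predicted unfolded state with 0 unfolded-like and 1 meaning tenfold more protease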
Answer with the value's number alone.

Answered examples (3):
>>> observed("DEDEEQAEKMIKIWIHDMATGNEESLVRLADPRVRSEVDGVQLHGRESLRKFLHDEWRDLGVDRIQVHVRRYHVFDGRLHLDGEVIVNGQDKTMHIVLIKVDGRWHLKSVHFR")
2.14
>>> observed("SETHKHWEEVARIIIKALETGDFRLFHKLLDPNARLHHDIGDKRVNNVGREEVVRTLKMWIDRFPNVTIELKDMRVIDGVVHHDESLNINGVTVRVHIEIIVFDGKLEEMRIEYR")
1.23
>>> observed("EEDHEIVEKMLKMLFHSWHTGDEKLFKTLVDPNAKFVIGDKTFHGREFYKFLHDRFDHFRMHDITVRKVEHFDGRLIAHVEIHWRLHIGDKTETEVTESHIIIEKIDGKWRNRSIIVH")
1.76

# input for lookup
Please report the recorded protease stability score for DEDHEAMKHFQHLLERTHRTGDEERLLRLLDPNVRIIINGQHFHGREWWARHINHMRFHEYEFRVHHINVYGDKIEIDGTLRRRGEFDGREHEVNIRVHLTIEKFDGRWYMHILEFR .
0.795

* * *

test: protease stability score; higher = more stable; yeast display proteolysis, trypsin and chymotrypsin;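 also: relative to predicted unfolded state with 0 unfolded-like and 1 meaning tenfold more protease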
MEASUREMENT_TYPE: protease stability score
I only need the number, thanks.

Below, each entry is followed by its recorded protease stability score result.
>>> observed("SEEDKTALEMFERLIHAWLTGDEDEMRRMADPHVKIDKEFENHEVQFHGREDFVRWVIEVRDRIDHLEIRNHSIRTWNGVVHVHTTLFLNYDGKLFILRTEFRLFVIDGRLREERFMLH")
0.282
>>> observed("TEEEELSELILELTERMIKTGDEKTLHRLMDPNARTVIGDKQDHGMRTIFNIMEELSERIKNARFSLKHIDVDGDKVKIWSTLNYDGRRWEVEIVARKIDGQWRLEEFRIR")
0.626
>>> observed("TEDHERIKKHIEILMHNLKTGNFEALVRMADPHVRFRLVQGNFHDETHGRDAWREVLERLGIDHIEIRDIRIHLYDGRLEMRIDGISRFNGREHKVELIIIIDKIDGRWRISEVELRIE")
2.15
>>> observed("TEDEKLVEIALELWLRSLRTGDEDMFRELFDPNTRIFVNGVDHHGRHALEIVKERYDHVRDFHIELRSVHYVNGVLHVDGHFRMDIKYGDKRRIIENRTIMIIEKINGRWIFKHERLE")
1.24

Here is another sequence to look at.
// query protease stability score value for entry DEEEQLFHEAHDKFIKIMETGDWKDFHRNFDPDAKIEVGDKDKHGREEATEMLKFILDLLGVDHVLVKRLRIYGNKIESDVVFNVNGVEQRFHLISVKINGKWRTHKIVLR
1.23

These measurements were taken from the NTF2 design screens of Basanta et al. (2020).
